This collection of values is drawn from patent US7495104B2.

Readings of IC50 for the listed compounds
# study.target: Bek (Homo sapiens, UniProt P21802)
# Sequence (P21802 431-767 limits assumed): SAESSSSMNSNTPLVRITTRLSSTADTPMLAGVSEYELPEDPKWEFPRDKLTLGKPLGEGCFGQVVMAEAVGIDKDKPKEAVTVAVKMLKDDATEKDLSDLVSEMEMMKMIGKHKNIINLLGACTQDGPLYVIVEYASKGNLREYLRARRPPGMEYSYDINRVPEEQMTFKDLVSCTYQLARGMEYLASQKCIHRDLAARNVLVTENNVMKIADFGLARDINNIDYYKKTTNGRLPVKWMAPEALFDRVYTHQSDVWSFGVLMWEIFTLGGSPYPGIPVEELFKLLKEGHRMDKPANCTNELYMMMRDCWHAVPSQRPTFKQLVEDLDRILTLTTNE
# method.description: Inhibitory activity against Bek-autophosphorylation using ELISA method in OCUM-2MD3 cells
# condition.notes: 1 hr with compound, read-out: IC50 (concentration necessary for inhibiting 50% of Bek-phosphorylation)

{"compound": "COc1cc2c(Oc3ccc(Nc4ccc(C(C)(C)C)cc4)cc3)ccnc2cc1OCCCN(CCO)CCO", "unit.text": "nM", "comparison.operator": "=", "IC50": 30.6}
{"compound": "COc1cc2c(Oc3ccc(Nc4ccc(C(C)(C)C)cc4)cc3)ccnc2cc1OCCCN1CCC(O)CC1", "unit.text": "nM", "comparison.operator": "=", "IC50": 174}
{"compound": "COc1cc2c(Oc3ccc(Nc4ccc(C(C)(C)C)cc4)cc3F)ccnc2cc1OCCCN1CCC(CCO)CC1", "unit.text": "nM", "comparison.operator": "=", "IC50": 151}
{"compound": "COc1cc2c(Oc3ccc(NC(=O)NCCC(C)(C)C)cc3)ccnc2cc1OCC(O)CN1CCC(N2CCCCC2)CC1 (stereo not drawn)", "unit.text": "nM", "comparison.operator": "<", "IC50": 10}
{"compound": "COc1cc2c(Oc3ccc(Nc4ccc(C(C)(C)C)cc4)c(Cl)c3)ccnc2cc1OCCCN1CCC(CCO)CC1", "unit.text": "nM", "comparison.operator": "=", "IC50": 1100}
{"compound": "COc1cc2c(Oc3ccc(Nc4ccc(C(C)(C)C)cc4)cc3)ccnc2cc1OCCCN(C)CCO", "unit.text": "nM", "comparison.operator": "=", "IC50": 33}
{"compound": "COc1cc2c(Oc3ccc(NC(=O)NCCC(C)(C)C)c(F)c3)ccnc2cc1OCCCN1CC(C)OC(C)C1 (stereo not drawn)", "unit.text": "nM", "comparison.operator": "=", "IC50": 34.2}
{"compound": "COc1cc2nccc(Oc3ccc(NC(=O)NCCC(C)(C)C)cc3Cl)c2cc1OC", "unit.text": "nM", "comparison.operator": "=", "IC50": 32.8}
{"compound": "COc1cc2c(Oc3ccc(NC(=O)NCCC(C)(C)C)c(Cl)c3)ccnc2cc1OCCN1CC(C)OC(C)C1 (stereo not drawn)", "unit.text": "nM", "comparison.operator": "=", "IC50": 13}
{"compound": "COc1cc2c(Oc3ccc(Nc4ccc(C(C)(C)C)cc4)cc3)ccnc2cc1OCC(O)CN1CC(C)OC(C)C1 (stereo not drawn)", "unit.text": "nM", "comparison.operator": "=", "IC50": 28.5}
{"compound": "COc1cc2c(Oc3ccc(NC(=O)NCCC(C)(C)C)c(F)c3)ccnc2cc1OCCCN1CCC(CCO)CC1", "unit.text": "nM", "comparison.operator": "=", "IC50": 31.2}
{"compound": "COc1cc2c(Oc3ccc(Nc4ccc(C(C)(C)C)cc4)cc3)ccnc2cc1OCCCN1CCC(N2CCCC2)CC1", "unit.text": "nM", "comparison.operator": "=", "IC50": 207}
{"compound": "COc1cc2c(Oc3ccc(NC(=O)NCCC(C)(C)C)c(F)c3)ccnc2cc1OCCCN(C)CCO", "unit.text": "nM", "comparison.operator": "=", "IC50": 9.4}
{"compound": "COc1cc2c(Oc3ccc(NC(=O)NCCC(C)(C)C)cc3Cl)ccnc2cc1OCCCN1CCC(CO)CC1", "unit.text": "nM", "comparison.operator": "=", "IC50": 16.4}
{"compound": "COc1cc2c(Oc3ccc(Nc4ccc(C(C)(C)C)cc4)cc3Cl)ccnc2cc1OCCCN1CCC(CO)CC1", "unit.text": "nM", "comparison.operator": "=", "IC50": 184}
